# experimental.target: human P2X3 receptor (homomeric P2X3 channels) (Homo sapiens)
# Construct: expressed in transfected cells; host or cells: HEK293 human embryonic kidney cells (HEK-hP2X3)
# assay.info: FlexStation calcium fluorescence assay, homomeric P2X3 channels in HEK293 cells
# Type: cell-based
# run.conditions: HEK293 cells, hP2X3; agonist 1 μM α,β-meATP; read-out: Average pIC50 P2X3 (converted)
experimental.readout: IC50 (nM)

Illustrative cases are given below, each with its answer.
                               entry_smiles  reading
0  COc1cc(Oc2cnc(NCC(C)C)nc2N)c(C(C)C)cc1OC      631
1  COc1cc(Oc2cnc(N)nc2NCCS(C)(=O)=O)c(C(C)C)cc1OC      398
2  COc1cc(Oc2cnc(NC(CCO)CCO)nc2N)c(C(C)C)cc1OC     79.4

a. COc1cc(Oc2cnc(NCCO)nc2N)c(C(C)C)cc1OC
b. CNc1nc(N)ncc1Oc1cc(OC)c(OC)cc1C(C)C
Q: Hi, I'm comparing two records. Which one has the lower IC50, a or b ? Return value: the label identifying the chosen record.
A: a

I. COc1cc(C(C)C)c(Sc2cnc(N)nc2N)cc1Cl
II. COc1cc(Oc2cnc(N)nc2Nc2ccccn2)c(C(C)C)cc1OC
III. COc1cc(Oc2cnc(N)nc2Nc2ccccc2)c(C(C)C)cc1OC
Q: Highest IC50 first, then in falling order down to the smallest. Please reply with the labels ordered as requested. Many thanks.
A: II, III, I
(II: 1580 nM, III: 1000 nM, I: 158 nM)

a. COc1cc(Oc2cnc(N)nc2NCc2ccccc2)c(C(C)C)cc1OC
b. COc1cc(C(C)C)c(Sc2cnc(N)nc2N)cc1I
c. COc1cc(Oc2cnc(N)nc2NC2CCOCC2)c(C(C)C)cc1OC
Q: Highest IC50 first, then in falling order down to the smallest. Please reply with the labels ordered as requested. Many thanks.
A: c, a, b
(c: 1260 nM, a: 631 nM, b: 126 nM)

A. CC#Cc1cc(Sc2cnc(N)nc2N)c(C(C)C)cc1OC
B. COc1cc(C(C)C)c(Sc2cnc(N)nc2N)cc1S(C)(=O)=O
Q: Which of the two items, A and B , has the greater recorded IC50? Return value: the label identifying the chosen record.
A: A
(A: 794 nM, B: 501 nM)

----------
# experimental.target: human P2X3 receptor (homomeric P2X3 channels) (Homo sapiens, UniProt P56373)
# Construct: expressed in transfected cells; host or cells: HEK293 human embryonic kidney cells (HEK-hP2X3)
# Sequence (P56373 1-397): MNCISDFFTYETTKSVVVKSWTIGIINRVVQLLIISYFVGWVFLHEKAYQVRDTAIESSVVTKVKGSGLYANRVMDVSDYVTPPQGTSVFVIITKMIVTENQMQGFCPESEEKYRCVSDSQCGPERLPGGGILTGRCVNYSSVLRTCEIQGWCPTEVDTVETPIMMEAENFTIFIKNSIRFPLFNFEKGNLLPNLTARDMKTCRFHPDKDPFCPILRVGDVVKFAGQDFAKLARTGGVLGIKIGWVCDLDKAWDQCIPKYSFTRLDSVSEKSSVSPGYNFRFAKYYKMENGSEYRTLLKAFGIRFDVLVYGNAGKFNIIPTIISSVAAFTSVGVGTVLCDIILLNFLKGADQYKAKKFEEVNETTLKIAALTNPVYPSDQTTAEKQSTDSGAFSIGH
# assay.info: FlexStation calcium fluorescence assay, homomeric P2X3 channels in HEK293 cells
# Format: cell-based
# run.conditions: Ratio=10^(P2X3pIC50−P2X2/3pIC50)
experimental.readout: Selectivity P2X3/P2X2/3

Illustrative cases are given below, each with its answer.
                                   compound  reading
0  COc1cc(Oc2cnc(NC(CO)CO)nc2N)c(C(C)C)cc1OC      4.9
1   COc1cc(Oc2cnc(NC3CC3)nc2N)c(C(C)C)cc1OC      5.4

1. COc1cc(Oc2cnc(NC(CCO)CCO)nc2N)c(C(C)C)cc1OC
2. COc1cc(Oc2cnc(NCC(O)CO)nc2N)c(C(C)C)cc1OC (stereo not shown)
Q: Hi, I'm comparing two records. Which one has the lower Selectivity P2X3/P2X2/3, 1 or 2 ? Return value: the label identifying the chosen record.
A: 1

I. COc1cc(Oc2cnc(N)nc2NCc2ccccc2)c(C(C)C)cc1OC
II. COc1cc(Oc2cnc(N)nc2NCCN(C)C)c(C(C)C)cc1OC
Q: Hi, I'm comparing two records. Which one has the lower Selectivity P2X3/P2X2/3, I or II ? Return value: the label identifying the chosen record.
A: I
(I: 4.8, II: 17)

P. COc1cc(Oc2cnc(NC3CCC3)nc2N)c(C(C)C)cc1OC
Q. COc1nc(C(C)C)c(Oc2cnc(N)nc2N)cc1I
R. CCNc1ncc(Oc2cc(OC)c(OC)cc2C(C)C)c(N)n1
S. COc1cc(Oc2cnc(N)nc2NC2CCN(C)CC2)c(C(C)C)cc1OC
Q: Form: Sort by [Selectivity P2X3/P2X2/3] Order [ ascending ] Please reply with the labels ordered as requested. Many thanks.
A: P, Q, R, S
(P: 2.5, Q: 6.5, R: 9.3, S: 20)

a. COc1cc(Oc2cnc(NCCO)nc2N)c(C(C)C)cc1OC
b. COc1cc(Oc2cnc(NC3CCOCC3)nc2N)c(C(C)C)cc1OC
Q: Hi, I'm comparing two records. Which one has the lower Selectivity P2X3/P2X2/3, a or b ? Return value: the label identifying the chosen record.
A: b
(b: 3.2, a: 7.9)

----------
# experimental.target: human P2X2/3 (heteromeric P2X2/3 channels) (Homo sapiens, UniProt P56373+Q9UBL9)
# Construct: expressed in transfected cells; host or cells: 1321N1 human astrocytoma cells (1321N1-hP2X2/3)
# assay.info: FlexStation calcium fluorescence assay, heteromeric P2X2/3 channels in 1321N1 cells
# Type: cell-based
# run.conditions: 1321N1 cells, hP2X2/3; agonist 3 μM ATP; highest concentration tested is 10 μM; read-out: Average pIC50 P2X2/3 (converted)
experimental.readout: IC50

>>> df
                                   molecule  reading
0  COc1cc(C(C)C)c(Sc2cnc(N)nc2N)cc1S(C)(=O)=O [Compound 2]  > 10 µM
1  COc1cc(C(C)C)c(Sc2cnc(N)nc2N)cc1Br [Compound 8]  > 10 µM
2  COc1cc(C(C)C)c(Sc2cnc(N)nc2N)cc1C(=O)O [Compound 12]  > 10 µM
3  COc1cc(Oc2cnc(N)nc2Nc2ccccc2)c(C(C)C)cc1OC [Compound 42]  > 10 µM

Here is another molecule to look at.
Q: Query: IC50; subject: COc1cc(Oc2cnc(NC(C)(C)C)nc2N)c(C(C)C)cc1OC [Compound 23]
A: > 10 µM

----------
# experimental.target: human P2X3 receptor (homomeric P2X3 channels) (Homo sapiens, UniProt P56373)
# Construct: expressed in transfected cells; host or cells: HEK293 human embryonic kidney cells (HEK-hP2X3)
# assay.info: FlexStation calcium fluorescence assay, homomeric P2X3 channels in HEK293 cells
# Format: cell-based
# run.conditions: HEK293 cells, hP2X3; agonist 1 μM α,β-meATP; read-out: Average pIC50 P2X3 (converted)
experimental.readout: IC50 (nM)

>>> df
                               entry_smiles                       experimental_target  reading
0  COc1nc(C(C)C)c(Oc2cnc(N)nc2N)cc1C(F)(F)F  human P2X3 receptor (homomeric P2X3 channels) (Homo sapiens, UniProt P56373)     63.1

I. COc1cc(Oc2cnc(N)nc2Nc2cnccn2)c(C(C)C)cc1OC
II. COc1cc(Oc2cnc(N)nc2NCC(C)C)c(C(C)C)cc1OC
III. COc1cc(Oc2cnc(N)nc2NC(C)C)c(C(C)C)cc1OC
Q: Form: Sort by [IC50] Order [ ascending ] Please reply with the labels ordered as requested. Many thanks.
A: II, I, III

----------
Measured Selectivity P2X3/P2X2/3 values are reported for all entries that follow.
# experimental.target: human P2X3 receptor (homomeric P2X3 channels) (Homo sapiens, UniProt P56373)
# Construct: expressed in transfected cells; host or cells: HEK293 human embryonic kidney cells (HEK-hP2X3)
# Sequence (P56373 1-397): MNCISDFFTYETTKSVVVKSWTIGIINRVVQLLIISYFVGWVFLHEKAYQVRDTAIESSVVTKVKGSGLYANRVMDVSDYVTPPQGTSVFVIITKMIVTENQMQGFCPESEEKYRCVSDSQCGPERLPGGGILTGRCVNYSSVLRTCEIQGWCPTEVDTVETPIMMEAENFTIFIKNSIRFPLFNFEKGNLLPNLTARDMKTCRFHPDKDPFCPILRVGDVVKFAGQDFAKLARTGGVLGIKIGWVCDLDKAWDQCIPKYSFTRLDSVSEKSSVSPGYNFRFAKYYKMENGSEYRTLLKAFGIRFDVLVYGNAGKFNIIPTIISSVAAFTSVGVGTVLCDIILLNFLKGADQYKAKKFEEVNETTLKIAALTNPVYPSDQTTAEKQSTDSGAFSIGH
# assay.info: FlexStation calcium fluorescence assay, homomeric P2X3 channels in HEK293 cells
# Type: cell-based
# run.conditions: Ratio=10^(P2X3pIC50−P2X2/3pIC50)
# Procedure: 1321N1 human astrocytoma and HEK293 human embryonic kidney cells were stably transfected with human P2X2 and P2X3 receptor subunits to form heteromeric P2X2/3 channels and passaged in flasks. […] Approximately 24 hours before the FlexStation calcium fluorescence experiment, cells were released from their flasks, centrifuged and re-suspended in nutrient medium. […] The agonist was dispensed by the FlexStation during fluorescence measurement to construct agonist activation and antagonist inhibition curves. […]

Illustrative cases are given below, each with its answer.
In [3]: df
Out[3]:
                               entry_smiles     experimental_readout  reading
0  COc1cc(Oc2cnc(N)nc2Nc2ccccn2)c(C(C)C)cc1OC  Selectivity P2X3/P2X2/3     >5.6
1  COc1cc(Oc2cnc(N)nc2NCC(C)C)c(C(C)C)cc1OC  Selectivity P2X3/P2X2/3      >15
2  COCCOCCNc1ncc(Oc2cc(OC)c(OC)cc2C(C)C)c(N)n1  Selectivity P2X3/P2X2/3     >5.9
3  COc1cc(Oc2cnc(N)nc2Nc2ccccc2)c(C(C)C)cc1OC  Selectivity P2X3/P2X2/3      >10
4  COc1cc(Oc2cnc(N)nc2NCCS(C)(=O)=O)c(C(C)C)cc1OC  Selectivity P2X3/P2X2/3      >27

Q: Query: Selectivity P2X3/P2X2/3; subject: `COc1cc(Oc2cnc(N)nc2Nc2cnccn2)c(C(C)C)cc1OC`
A: >10

Q: Can you check `CNc1nc(N)ncc1Oc1cc(OC)c(OC)cc1C(C)C` next?
A: >6.4

Q: Can you check `COc1cc(Oc2cnc(NC(C)(C)C)nc2N)c(C(C)C)cc1OC` next?
A: >10.5

Q: Can you check `COc1cc(Oc2cnc(N)nc2NC(C)C)c(C(C)C)cc1OC` next?
A: >2.5

Q: Can you check `COc1cc(Oc2cnc(N)nc2NCCO)c(C(C)C)cc1OC` next?
A: >10
